Attribution: patent US20220235064A1

System: cancer cell line KM12C, in which RON is activated
Test: Cell-killing efficacy in RON-activated cancer cell line (trypan blue)
Assay type: cell-based
Details: Homo sapiens, 5 μM, 48 hours, trypan blue, n=2, read-out: Cell death (%) Cancer cell line KM12C
Protocol: Experimental Example 3: Measurement of Cell-Killing Efficacy of Example Compounds in RON-Activated Cancer Cell Line The cancer cell line KM12C (80015, KCLB, MEM+10% FBS), in which RON is activated, was dispensed into each 60 mm^2 dish at 1×10^5 cells. […] Thereafter, living cells and dead cells were quantified (n=2) using a trypan blue solution (15250-061, Gibco), and statistical analysis was performed using Excel-T-test. […]
Counter-ions that a name gives are not always drawn.
quantity_measured: cytotoxicity at 5 µM (%)

> print(dat)
                                    compound  measurement
 1  O=C(Nc1ccc(Oc2ccnc3cc(-c4ccc(CN5CC(F)(F)C5)cn4)sc23)c(F)c1)c1c2c(cn(-c3ccc(F)cc3)c1=O)CCO2         11.3
 2  COc1cc2c(Oc3ccc(NC(=O)c4c5c(cn(-c6ccc(F)cc6)c4=O)CCO5)cc3F)ccnc2cc1NCCCN1CCOCC1         57.3
 3  O=C(Nc1ccc(Oc2ccnc3cc(-c4ccc(CN5CCOCC5)cn4)sc23)c(F)c1)c1c2c(cn(-c3ccc(F)cc3)c1=O)CCO2 [Example 5, hydrochloride]         25.9
 4  COc1cc2c(Oc3ccc(NC(=O)c4c5c(cn(-c6ccc(F)cc6)c4=O)CCO5)cc3F)ccnc2cc1NC(C)=O         54.2
 5  O=C(Nc1ccc(Oc2ccnc3cc(OCCCN4CCCCC4)ccc23)c(F)c1)c1c2c(cn(-c3ccc(F)cc3)c1=O)CCO2           22
 6  O=C(Nc1ccc(Oc2ccnc3cc(-c4ccccn4)sc23)c(F)c1)c1c2c(cn(-c3ccc(F)cc3)c1=O)CCO2           34
 7  COc1cc2nccc(Oc3ccc(NC(=O)c4c5c(cn(-c6ccc(F)cc6)c4=O)CCO5)cc3F)c2cc1OC         37.3
 8  COc1ccc2nccc(Oc3ccc(NC(=O)c4c5c(cn(-c6ccc(F)cc6)c4=O)CCO5)cc3F)c2c1         21.4
 9  COc1cc2c(Oc3ccc(NC(=O)c4c5c(cn(-c6ccc(F)cc6)c4=O)CCO5)cc3F)ccnc2cc1NCCN1CCOCC1           60
10  COc1cc2nccc(Oc3ccc(NC(=O)c4c5c(cn(-c6ccc(F)cc6)c4=O)CCO5)cc3F)c2cc1NCCN1CCOCC1         63.8
11  COc1cc2nccc(Oc3ccc(NC(=O)c4c5c(cn(-c6ccc(F)cc6)c4=O)CCO5)cc3F)c2cc1OCCCN1CCOCC1         20.2
12  CN1CCN(CCCOc2ccc3c(Oc4ccc(NC(=O)c5c6c(cn(-c7ccc(F)cc7)c5=O)CCO6)cc4F)ccnc3c2)CC1         19.4
13  COc1cc2nccc(Oc3ccc(NC(=O)c4c5c(cn(-c6ccc(F)cc6)c4=O)CCO5)cc3F)c2cc1C(N)=O         30.9

---

Some compounds, each annotated with its measured pIC50.
molecular target: RON tyrosine kinase (Homo sapiens, UniProt Q04912)
Sequence (Q04912 25-1400): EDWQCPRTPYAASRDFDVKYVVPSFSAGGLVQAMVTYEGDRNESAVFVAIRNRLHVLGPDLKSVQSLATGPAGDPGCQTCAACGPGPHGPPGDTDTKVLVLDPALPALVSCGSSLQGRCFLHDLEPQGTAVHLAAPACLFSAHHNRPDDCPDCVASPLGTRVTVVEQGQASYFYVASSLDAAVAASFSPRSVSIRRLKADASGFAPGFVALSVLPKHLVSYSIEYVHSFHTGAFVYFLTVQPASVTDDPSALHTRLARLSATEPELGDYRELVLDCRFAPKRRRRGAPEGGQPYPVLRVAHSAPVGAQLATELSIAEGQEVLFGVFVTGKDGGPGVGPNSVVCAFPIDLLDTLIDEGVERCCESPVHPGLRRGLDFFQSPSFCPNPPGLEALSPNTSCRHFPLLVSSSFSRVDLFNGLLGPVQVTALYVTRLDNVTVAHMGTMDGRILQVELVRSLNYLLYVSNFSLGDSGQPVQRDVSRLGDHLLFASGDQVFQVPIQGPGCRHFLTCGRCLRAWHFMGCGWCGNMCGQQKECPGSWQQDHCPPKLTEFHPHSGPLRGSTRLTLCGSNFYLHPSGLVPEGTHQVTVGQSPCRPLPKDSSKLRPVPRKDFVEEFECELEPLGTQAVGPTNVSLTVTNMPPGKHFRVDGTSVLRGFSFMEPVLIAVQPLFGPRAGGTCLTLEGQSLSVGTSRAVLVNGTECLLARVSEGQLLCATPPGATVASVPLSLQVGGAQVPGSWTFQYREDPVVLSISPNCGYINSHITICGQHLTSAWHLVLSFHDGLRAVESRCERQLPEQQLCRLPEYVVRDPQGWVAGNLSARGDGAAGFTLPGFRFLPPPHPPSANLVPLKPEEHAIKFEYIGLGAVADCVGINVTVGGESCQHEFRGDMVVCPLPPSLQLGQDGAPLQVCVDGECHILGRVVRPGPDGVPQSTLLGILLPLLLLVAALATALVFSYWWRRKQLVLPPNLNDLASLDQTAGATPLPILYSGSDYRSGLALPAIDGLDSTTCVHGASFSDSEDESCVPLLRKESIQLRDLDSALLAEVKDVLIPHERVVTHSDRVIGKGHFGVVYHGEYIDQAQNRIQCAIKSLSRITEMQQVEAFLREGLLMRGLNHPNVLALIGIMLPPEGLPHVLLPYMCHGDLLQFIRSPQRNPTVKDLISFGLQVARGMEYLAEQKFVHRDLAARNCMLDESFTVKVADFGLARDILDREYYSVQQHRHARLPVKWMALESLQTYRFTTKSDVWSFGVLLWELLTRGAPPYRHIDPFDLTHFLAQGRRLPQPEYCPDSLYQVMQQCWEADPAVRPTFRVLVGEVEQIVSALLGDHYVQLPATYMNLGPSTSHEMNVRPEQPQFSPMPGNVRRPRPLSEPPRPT
pIC50: −log10 of the molar value. Counter-ions that a name gives are not always drawn.
quantity_measured: pIC50

> print(dat)
                                    compound                                    target  quantity.measured  measurement
 1  CC1CCN(CCCOc2ccc3c(Oc4ccc(NC(=O)c5c6c(cn(-c7ccc(F)cc7)c5=O)CCO6)cc4F)ccnc3c2)CC1 [Example 162]  RON tyrosine kinase (Homo sapiens, UniProt Q04912)              pIC50         8.93
 2  CNC(=O)c1cc2nccc(Oc3ccc(NC(=O)c4c5c(cn(-c6ccc(F)cc6)c4=O)CCO5)cc3F)c2cc1OCCN1CCOCC1 [Example 166]  RON tyrosine kinase (Homo sapiens, UniProt Q04912)              pIC50         8.72
 3  COc1cc2nccc(Oc3ccc(NC(=O)c4c5c(cn(-c6ccc(F)cc6)c4=O)CCO5)cc3F)c2cc1N [Example 179]  RON tyrosine kinase (Homo sapiens, UniProt Q04912)              pIC50         9.33
 4  COc1cc2nccc(Oc3ccc(NC(=O)c4c5c(cn(-c6ccc(F)cc6)c4=O)CCO5)cc3F)c2cc1OCCCN1CCOCC1 [Example 176]  RON tyrosine kinase (Homo sapiens, UniProt Q04912)              pIC50        10.00
 5  COc1cc2nccc(Oc3ccc(NC(=O)c4c5c(cn(-c6cccc(F)c6)c4=O)CCO5)cc3F)c2cc1OC [Example 43]  RON tyrosine kinase (Homo sapiens, UniProt Q04912)              pIC50         8.29
 6  COc1cc2c(Oc3ccc(NC(=O)c4c5c(cn(-c6ccc(F)cc6)c4=O)CCC5)cc3F)ccnc2cc1OCCCN1CCOCC1 [Example 77]  RON tyrosine kinase (Homo sapiens, UniProt Q04912)              pIC50         8.03
 7  Nc1cc(Oc2ccc(NC(=O)c3c4c(cn(-c5ccc(F)cc5)c3=O)CCO4)cc2F)ccn1 [Example 56]  RON tyrosine kinase (Homo sapiens, UniProt Q04912)              pIC50         7.93
 8  CNC(=O)c1cc2c(Oc3ccc(NC(=O)c4c5c(cn(-c6ccc(F)cc6)c4=O)CCO5)cc3F)ccnc2cc1OCCN1CCOCC1 [Example 163]  RON tyrosine kinase (Homo sapiens, UniProt Q04912)              pIC50        10.00
 9  COCCNCc1ccc(-c2cc3nccc(Oc4ccc(NC(=O)c5c6c(cn(-c7ccccc7)c5=O)CCO6)cc4F)c3s2)nc1 [Example 2, hydrochloride]  RON tyrosine kinase (Homo sapiens, UniProt Q04912)              pIC50         8.90
10  COc1cc2nccc(Oc3ccc(NC(=O)c4c5c(cn(-c6ccc(F)cc6)c4=O)CCO5)cc3F)c2cc1NC(=O)CCN1CCOCC1 [Example 180]  RON tyrosine kinase (Homo sapiens, UniProt Q04912)              pIC50         8.17
11  O=C(Nc1ccc(Oc2ccnc3ccoc23)c(F)c1)c1c2c(cn(-c3ccc(F)cc3)c1=O)CCO2 [Example 69]  RON tyrosine kinase (Homo sapiens, UniProt Q04912)              pIC50         8.48
12  COc1cc2c(Oc3ccc(NC(=O)c4c5c(cn(-c6ccc(F)cc6)c4=O)CCO5)cc3F)ccnc2cc1OCCCN1CCOCC1 [Example 76]  RON tyrosine kinase (Homo sapiens, UniProt Q04912)              pIC50         8.75
13  O=C(Nc1ccc(Oc2ccnc3cc(OCCN4CCOCC4)c(F)cc23)c(F)c1)c1c2c(cn(-c3ccc(F)cc3)c1=O)CCO2 [Example 167]  RON tyrosine kinase (Homo sapiens, UniProt Q04912)              pIC50         9.08
14  Cn1ncc2cc(Oc3ccc(NC(=O)c4c5c(cn(-c6ccc(F)cc6)c4=O)CCO5)cc3F)c(-c3cn[nH]c3)cc21 [Example 64]  RON tyrosine kinase (Homo sapiens, UniProt Q04912)              pIC50         7.85

---

This listing pairs compounds with measured cytotoxicity at 5 µM.
tested on: cancer cell line KM12C, in which RON is activated; test: Cell-killing efficacy in RON-activated cancer cell line (trypan blue); format: cell-based; settings: Homo sapiens, 5 μM, 48 hours, trypan blue, n=2, read-out: Cell death (%) Cancer cell line KM12C
quantity_measured: cytotoxicity at 5 µM (%)

> print(dat)
                           structure.smiles                                    target     quantity.measured  measurement
1  COc1cc2nccc(Oc3ccc(NC(=O)c4c5c(cn(-c6ccc(F)cc6)c4=O)CCO5)cc3F)c2cc1C(=O)NCCN1CCOCC1  cancer cell line KM12C, in which RON is activated  cytotoxicity at 5 µM         32.3
2  COc1cc2nccc(Oc3ccc(NC(=O)c4c5c(cn(-c6ccc(F)cc6)c4=O)CCO5)cc3F)c2cc1NC(=O)CCN1CCOCC1  cancer cell line KM12C, in which RON is activated  cytotoxicity at 5 µM         20.6
3  Cn1ncc2cc(Oc3ccc(NC(=O)c4c5c(cn(-c6ccc(F)cc6)c4=O)CCO5)cc3F)c(-c3cn[nH]c3)cc21  cancer cell line KM12C, in which RON is activated  cytotoxicity at 5 µM         97.1
